meta.source: PubChem BioAssay

z-score reference
test: change in splice reporter luminescence, either direction, cell-based, HEK293, spliceosome inhibition project, primary screen (AID 1101); conditions: HEK293 splicing luciferase reporter, 24 h, higher = more signal, called active from +8 up or from −8 down;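 note: HEK293 cells carrying a splicing-competent luciferase reporter gene; test concentration not given here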
Respond with the number and no other words.

# count of solved cases: 8
C=CC[C@]1(C(=O)NCC(O)CO)N=C(c2ccc(OCCCO)cc2)O[C@H]1c1ccccc1N=[N+]=[N-] (some centres undefined) :: -0.789
CO[C@H]1O[C@H](CO)[C@@H](OC(=O)Nc2cccc(F)c2)[C@H](OC(=O)Nc2ccc3c(c2)OCO3)[C@H]1OC(=O)Nc1ccc2c(c1)OCO2 :: -0.197
OCCCC1=CC(c2cccs2)N(Cc2cccc(OC(F)(F)F)c2)CC1 (centres undefined) :: -0.733
O=C1C[C@@](C(=O)NCc2ccccc2)(c2ccc([N+](=O)[O-])cc2)[C@@H](c2ccc(CO)cc2I)N1C1CCCCC1 :: -0.551
CCOc1cc(C(O)C2C=CC3C(=O)NC(=O)C3N2Nc2ccccn2)ccc1O (centres undefined) :: 1.12
COC(=O)C(CC#Cc1ccc2c(c1)[C@]1(C(=O)N2)[C@H](c2ccc(OCCO)cc2)N2[C@H](c3ccccc3)[C@H](c3ccccc3)OC(=O)[C@H]2[C@@H]1C(=O)O)C(=O)OC :: -0.609
[N-]=[N+]=NCc1ccccc1C[C@]1(C(=O)NCCN2CCOCC2)COC(c2ccc(OCCCO)cc2)=N1 :: -0.995
C[C@]12C(=O)N(CCCCCO)[C@@H]3C(=O)N(c4ccc(Cl)cc4)CC=CC31O[C@@H]1/C=C\CCCOC(=O)C12 (some centres undefined) :: -0.0628

Incoming: If you can, please state the reported z-score value of COCCOC(=O)N1C(=O)[C@@]2(c3cc(C#CCNC(N)=O)ccc31)[C@H](C(=O)N1CCCCCCC1)[C@H]1C(=O)O[C@H](c3ccccc3)[C@H](c3ccccc3)N1[C@@H]2c1ccc(OCCO)cc1 .
Outgoing: 0.524

Incoming: One more compound: CC(C)c1ccc(NN2C(C(O)c3ccccn3)C=CC3C(=O)N(c4ccccc4)C(=O)C32)cc1 (centres undefined)
Outgoing: -0.684

Incoming: What would you report for CC1(C)[C@@H]2CC(C(O)C3C=CC4C(=O)N(c5ccccc5)C(=O)C4N3Nc3ccccc3F)=C[C@@H]1C2 (some centres undefined) ?
Outgoing: -1.75

Incoming: What do we get for C=CCOC(=O)[C@@H]1[C@H]2C(=O)O[C@H](c3ccccc3)[C@H](c3ccccc3)N2[C@H](c2ccc(OCCOC(=O)[C@@H]3C[C@@H]4C(=O)N[C@@H](CCCCNC(C)=O)C(=O)N4[C@@H]3c3ccc(O)cc3)cc2)[C@@]12C(=O)Nc1ccc(I)cc12 ?
Outgoing: 0.0887

Incoming: Proceed to COc1ccc([Si](C)(C)[C@H]2[C@H](CC(=O)N3CCC[C@H]3CO)O[C@@]3(C(=O)N(Cc4ccc(N5C(=O)c6cccc7cccc5c67)cc4)c4ccccc43)[C@@H]2C)cc1
Outgoing: -1.17

Incoming: Would you kindly repeat that for CC1=C2[C@@H](CCc3ccccc3)OB(O)C[C@@H]2[C@@H]2C(=O)C=CC(=O)[C@@H]2C1 ?
Outgoing: 3.33

Incoming: Repeat with CC(=O)NCCCC[C@@H]1NC(=O)[C@@H]2C[C@H](C(=O)NCCCC[N+](C)(C)C)[C@H](c3cccc(OCCO)c3)N2C1=O
Outgoing: 0.677

Incoming: Can you check COc1cc(C(O)C2C=CC3C(=O)NC(=O)C3N2Nc2ccc(Cl)cc2Cl)cc(OC)c1OC (centres undefined) next?
Outgoing: 0.734

Incoming: Same again, this time with C=C(COC)C(=O)CC[C@H](OC(=O)c1ccccc1-c1ccccc1C(=O)O)c1ccc(CO)o1
Outgoing: -0.0254

Incoming: Also check CN1C(=O)C2C=CC(C(O)COCc3ccccc3)N(Nc3ccccc3)C2C1=O (centres undefined)
Outgoing: 1.43

Incoming: Param item: COCCCNC(=O)[C@@H]1c2ccccc2C(=O)N(c2ccc(C)cn2)[C@H]1c1ccc(CO)cc1
Outgoing: -0.517

Incoming: Also need C=C(CCCC)/C(=C/C[C@H](OC(=O)c1ccncc1)c1ccc(CO)o1)c1cc(C(=O)OC)ccc1OC , thanks.
Outgoing: 0.84
